Recorded values, source PubChem BioAssay AID1963971.

system: 953936-095-R-J2-PDC spheroids with HUVEC/MSC, viability; experiment: Anticancer human tumor 953936-095-R-J2-PDC patient-derived cervical squamous cell carcinoma cell line growth inhibition [PI3K]; conditions: second compound 0.0316 µM; first compound 0.0316 µM; hits give low values;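 note: spheroids exposed to compounds for seven days before read-out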
The label true (1) is reserved for viability, T/C strictly under 80%; false (0) covers values equal to or above it.

COMPOUND: CCN1CCN(Cc2ccc(Nc3ncc(F)c(-c4cc(F)c5nc(C)n(C(C)C)c5c4)n3)nc2)CC1 + CC(Nc1ncnc2nc[nH]c12)c1cc2cccc(Cl)c2c(=O)n1-c1ccccc1
CATEGORY: false (0)

COMPOUND: CNC(=O)c1ccc(N2C(=S)N(c3ccc(C#N)c(C(F)(F)F)c3)C(=O)C2(C)C)cc1F + COc1c(OCCCN2CCOCC2)ccc2c3n(c(=NC(=O)c4cnc(N)nc4)nc12)CCN3
CATEGORY: true (1)

COMPOUND: CCCS(=O)(=O)Nc1ccc(F)c(C(=O)c2c[nH]c3ncc(-c4ccc(Cl)cc4)cc23)c1F + CC(Nc1ncnc2nc[nH]c12)c1cc2cccc(Cl)c2c(=O)n1-c1ccccc1
CATEGORY: false (0)

COMPOUND: C=CC(=O)N1CCN(c2nc(=O)n(-c3c(C)ccnc3C(C)C)c3nc(-c4c(O)cccc4F)c(F)cc23)C(C)C1 (stereo unspecified) + Cc1nc(NC(=O)N2CCCC2C(N)=O)sc1-c1ccnc(C(C)(C)C(F)(F)F)c1
CATEGORY: false (0)

COMPOUND: CC1(C)CCC(Nc2ncc(C(F)(F)F)c(-c3c[nH]c4c(P(C)(C)=O)c(C#N)ccc34)n2)CN1 (stereo unspecified) + CC(Nc1ncnc2nc[nH]c12)c1cc2cccc(Cl)c2c(=O)n1-c1ccccc1
CATEGORY: true (1)

COMPOUND: Cn1ncc(Cl)c1-c1cc(C(=O)NC(CN)Cc2cccc(F)c2)sc1Cl (stereo unspecified) + Cc1nc(NC(=O)N2CCCC2C(N)=O)sc1-c1ccnc(C(C)(C)C(F)(F)F)c1
CATEGORY: true (1)

COMPOUND: CC1(C)CCC(CN2CCN(c3ccc(C(=O)NS(=O)(=O)c4ccc(NCC5CCOCC5)c([N+](=O)[O-])c4)c(Oc4cnc5[nH]ccc5c4)c3)CC2)=C(c2ccc(Cl)cc2)C1 + Cc1nc(NC(=O)N2CCCC2C(N)=O)sc1-c1ccnc(C(C)(C)C(F)(F)F)c1
CATEGORY: false (0)

COMPOUND: C#Cc1c(F)ccc2cc(O)cc(-c3ncc4c(N5CC6CCC(C5)N6)nc(OCC56CCCN5CC(F)C6)nc4c3F)c12 (stereo unspecified) + CC(Nc1ncnc2nc[nH]c12)c1cc2cccc(Cl)c2c(=O)n1-c1ccccc1
CATEGORY: false (0)

COMPOUND: C[C@@H](NC(=O)c1ncnc(N)c1Cl)c1ncc(C(=O)Nc2cc(C(F)(F)F)c(Cl)cn2)s1 + Cc1nc(NC(=O)N2CCCC2C(N)=O)sc1-c1ccnc(C(C)(C)C(F)(F)F)c1
CATEGORY: false (0)

COMPOUND: Cn1ncnc1[C@H]1c2n[nH]c(=O)c3cc(F)cc(c23)N[C@@H]1c1ccc(F)cc1 + Cc1nc(NC(=O)N2CCCC2C(N)=O)sc1-c1ccnc(C(C)(C)C(F)(F)F)c1
CATEGORY: false (0)

COMPOUND: Cn1ncnc1[C@H]1c2n[nH]c(=O)c3cc(F)cc(c23)N[C@@H]1c1ccc(F)cc1 + CC(Nc1ncnc2nc[nH]c12)c1cc2cccc(Cl)c2c(=O)n1-c1ccccc1
CATEGORY: false (0)

COMPOUND: C[C@@H](NC(=O)c1ncnc(N)c1Cl)c1ncc(C(=O)Nc2cc(C(F)(F)F)c(Cl)cn2)s1 + CC(Nc1ncnc2nc[nH]c12)c1cc2cccc(Cl)c2c(=O)n1-c1ccccc1
CATEGORY: false (0)

COMPOUND: CC1(C)CCC(Nc2ncc(C(F)(F)F)c(-c3c[nH]c4c(P(C)(C)=O)c(C#N)ccc34)n2)CN1 (stereo unspecified) + Cc1nc(NC(=O)N2CCCC2C(N)=O)sc1-c1ccnc(C(C)(C)C(F)(F)F)c1
CATEGORY: true (1)

COMPOUND: CCCS(=O)(=O)Nc1ccc(F)c(C(=O)c2c[nH]c3ncc(-c4ccc(Cl)cc4)cc23)c1F + COc1c(OCCCN2CCOCC2)ccc2c3n(c(=NC(=O)c4cnc(N)nc4)nc12)CCN3
CATEGORY: true (1)

COMPOUND: CNC(=O)c1ccc(N2C(=S)N(c3ccc(C#N)c(C(F)(F)F)c3)C(=O)C2(C)C)cc1F + Cc1nc(NC(=O)N2CCCC2C(N)=O)sc1-c1ccnc(C(C)(C)C(F)(F)F)c1
CATEGORY: false (0)

COMPOUND: CC(C)NCC(C(=O)N1CCN(c2ncnc3c2C(C)CC3O)CC1)c1ccc(Cl)cc1 (stereo unspecified) + COc1c(OCCCN2CCOCC2)ccc2c3n(c(=NC(=O)c4cnc(N)nc4)nc12)CCN3
CATEGORY: true (1)

COMPOUND: C#Cc1c(F)ccc2cc(O)cc(-c3ncc4c(N5CC6CCC(C5)N6)nc(OCC56CCCN5CC(F)C6)nc4c3F)c12 (stereo unspecified) + Cc1nc(NC(=O)N2CCCC2C(N)=O)sc1-c1ccnc(C(C)(C)C(F)(F)F)c1
CATEGORY: false (0)
